- measurement-target: T1, Monomeric human CD48-mmH (human)
- T1 construct: also called soluble CD48 expressed with a myc-myc-hexa-histidine C-terminal tag [mmH]
- T1 chain: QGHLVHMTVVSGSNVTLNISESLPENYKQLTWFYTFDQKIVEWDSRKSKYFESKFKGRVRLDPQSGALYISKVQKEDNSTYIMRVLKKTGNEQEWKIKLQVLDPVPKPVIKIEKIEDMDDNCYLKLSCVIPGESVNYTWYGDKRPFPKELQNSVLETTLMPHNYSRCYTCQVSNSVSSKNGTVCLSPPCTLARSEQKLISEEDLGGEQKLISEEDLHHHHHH
- assay-procedure: SPR (Biacore T100), 25 C, antibody captured by anti-Fc, monomeric CD48-mmH in solution
We'd kindly ask you to apply these Kd classes: small value: < 0.5 nM; mid value: ≥ 0.5 nM and < 5 nM; large value: ≥ 5 nM

binder | category
H3M1766N (antibody, V domains shown, also called H2M1766N) VH: EVQLVESGGGLAQPGGSLRLSCAASGFTFSSYEMNWVRQAPGKGLEWVSYITTSGSTIYYADSVKGRFTMSRDNAKKSLYLEMNSLRAEDTAVYYCAREECTNGVCYKDYQYYGMDVWGQGTTVTVSS VL: DIQMTQSPSSVSASVGDRVTITCRASQNINTWLAWYQQKPGKVPKLLIYAASSLQSGVPSRFSGSGSGTDFTLTISSLQPEDFATYYCQQANSFPLTFGGGTKVEIK | mid value
H2M1763N (antibody, mouse IgG2, V domains shown, Human variable domains, mouse IgG2 Fc (prefix H2M)) VH: QIQLVQSGAEMKRPGTSVKVSCKASGYTFTSYGINWVRQAPGQGLEWMGWISAYNGDTNYAQKLQGRVTMTTDTSTTTAYMEVRSLRSDDTAVYYCARFLTGTKDYYYGMDVWGQGTTVTVSS VL: DIQMTQSPSSLSASVGDRVTITCQASQDISNFLNWYQQKPGKAPDLLINDASILETGVPSRFSGSGSGTDFTLTINNLQPEDIATYYCQQYDNLPLTFGGGTKVEIK | large value
H4H1707N (antibody, human IgG4, V domains shown, Human IgG4 Fc (prefix H4H)) VH: EGQLLESGGGLAQPGGSLRLSCAASGITFGRYAMSWVRQAPGKGLEWVSLISGSGGSTYHADSVKGRFTISRDNSKNTLYLQMNSLRAEDTAVYYCAIYNNYNWFDPWGQGTLVTVSS VL: EIVLTQSPGTLSLSPGERATLSCRASQSVSSNYLAWYQQKPGQAPRLLIYDASSRATDIPDRFSGSGSGTDFTLTISRLEPEDFAVYYCQQYGSSPRTFGQGTKVEIK | mid value
H4H1770P (antibody, human IgG4, V domains shown, Human IgG4 Fc (prefix H4H)) VH: QVQLVQSGAEVKKPGAAVKVSCKASGYTFTAYGISWVRQAPGQGLEWMGWISAYDGDTNNAQKFQGRVTMTTDTSSSTAYMELRSLGSDDTAVYYCARDRYSSSSGYFDYWGQGTLVTVSS VL: DIQMTQSPSSVSASVGDRVTITCRASQDISSWLAWSQQKPGKAPKALIYAASSLQSGVPSRFSGSGSGTDFTLTISSLQPEDFATYYCQQANSFPYTFGQGTKLEIK | small value
H2M1712N (antibody, mouse IgG2, V domains shown, Human variable domains, mouse IgG2 Fc (prefix H2M)) VH: QIQLVQSGAEMKRPGTSVKVSCKASGYTFSSYGINWVRQAPGQGLEWMGWISAYNGDTNYAQKLQGRVTMTTDTSTTTAYMEVRSLRSDDTAVYYCARFLTGTKDLYYGMDVWGQGTTVTVSS VL: DIQMTQSPSSLSASVGDRVTITCQASQDISNFLNWYQQKPGKAPDLLINDASILETGVPSRFSGSGSGTDFTLTINSLQPEDIATYYCQQYDNLPLTFGGGTKVEIK | large value
H4H1771P (antibody, human IgG4, V domains shown, Human IgG4 Fc (prefix H4H)) VH: QVQLVQSGTEVKKPGASVKVSCKVSGYTLIDLSIHWVRQAPGEGLEWMGGFDPEESETIYAQKFQGRVTMTEDTSTDTAYMELSSLRSEDTAVYYCVTEPIFGILIHESWGQGTLVTVSS VL: DIVMTQTPLSSPVTLGQPASISCRSSHSPVHSNGHTYLSWLQQRPGQPPRILIYKISRRFSGVPDRFSGSGAGTDFTLKISRVETEDVGIYYCMQASQFPWTFGQGTKVEIK | small value
H2M1811N (antibody, mouse IgG2, V domains shown, Human variable domains, mouse IgG2 Fc (prefix H2M)) VH: QVQLVQSGAEAREPGASVRVSCKASGYTFTDYFIHWVRQAPGQGLEWMGWINPNSGATNFAQKFQGRVTMTRDTSLITAYMDLSRLKSDDAAVFYCARDVDGSGWYLDFWGQGTLVTVSS VL: EIVLTQSPATLSLSPGERATLSCRASQSVSIYLAWYQQKPGQAPRLLIYDASNRATGIPARFSGSGSGTDFTLTISRLEPEDFAVYYCQQRSDWPPSITFGQGTRLEIK | large value
H2M1713N (antibody, mouse IgG2, V domains shown, Human variable domains, mouse IgG2 Fc (prefix H2M)) VH: QVQLVQSGAEVKKPGASVKVSCKASGHTFTNYYIHWVRQAPGQGLEWMGITNPNDGNTRYAQKFQGRISMTWDTSTSTVFMELSSLKSEDTAVYYCAGLRYWFFDLWGRGTPVTVSS VL: DIQMTQSPSSVSASVGDRVTITCRASQDISSWLAWYQQKPGKAPNLLIFAASSLQSGVPSRFSGSGSGTDFTLTISSLQPEDFGTYYCQQTDNFPRTFGQGTKVEIN | mid value
H4H1779P (antibody, human IgG4, V domains shown, Human IgG4 Fc (prefix H4H)) VH: QVQLVESGGGVVQPGRSLRLSCAASGFTFSNYGMHWVRQAPGKGLEWVAVIWYDESSKHYADSVKGRFTISRDNSQNTLYLQMTSLRAEDTAVYYCARDRWTYSHYFEYWGQGTLVTVSS VL: DIQMTQSPSSVSASVGDRVTITCRASQDISSWVAWYQQKPGKAPKLLIYAASSLQSGVPSRFSGSGSGTDFTLTISSLQPEDFATYYCQQANSFPRTFGQGTKVEIK | small value
H4H1774P (antibody, human IgG4, V domains shown, Human IgG4 Fc (prefix H4H)) VH: QVQLVESGGGVVQPGRSLRLSCAASGFTFSNYGMHWVRQAPGKGLEWVAVIWYDESSKYYTDSVKGRFTISRDNSQNTLYLQMTSLRAEDTAVYYCARDRWTYSHYFEYWGQGTLVTVSS VL: DIQMTQSPSSVSASVGDRVTITCRASQGISSWVAWYQQKPGKAPKLLIYAASSLQSGVPSRFSGSGSGTDFTLTISSLQPEDFATYYCQQANSFPRTFGQGTKVEIK | small value
